System: CRL-7250
Test: Cytotoxic Profiling of Annotated Libraries Using Quantitative High-Throughput Screening (AID 1296008); also: % is scaled to controls: 0 for no effect and ±100 for the full control effect; nearly all actives have a fitted effect of over 60% in size
Details: Five cell lines viability, CellTiter-Glo ATP luminescence, 48-72 h; hits give low values
Description: Cell-based phenotypic screening is a commonly used approach to discover biological pathways, novel drug targets, chemical probes and high-quality hit-to-lead molecules. […] A pintool (Kalypsys) was used to transfer 23 nL of compound solution to the 1536-well assay plates. […] Plates were left at room temperature for 10 min before imaging the ATP-coupled luminescence using a ViewLux microplate imager (PerkinElmer, Waltham, MA).
Results filed as inconclusive are left out.
metric.name: max response (%)

compound | observed.measurement
C=CC(C)(C)C1(CC2NC(=O)C3CCCN3C2=O)C(=O)Nc2cc3c(cc21)C=CC(C)(C)O3 (centres undefined) | -5.49
CN1C(=O)c2ccccc2NC(=O)[C@]12O[C@@H]2c1cccc(O)c1 | -2
C[C@@H]1O[C@@H](O[C@H]2[C@H](O[C@H]3CC[C@@]4(C)C(CC[C@]5(C)C4CC=C4[C@@H]6CC(C)(C)CC[C@]6(C(=O)O)CC[C@]45C)[C@]3(C)CO)OC[C@H](O)[C@@H]2O)[C@H](O)[C@H](O[C@@H]2OC[C@@H](O)[C@H](O)[C@H]2O)[C@H]1O (some centres undefined) | 0.8
CC(C)C(=O)O[C@@H]1[C@@H](O)[C@@H](O[C@H]2O[C@H](CO)[C@@H](O)[C@H](O)[C@H]2O)O[C@H](CO)[C@H]1O | -2.11
COC(=O)C1=CO[C@@H](O[C@@H]2O[C@H](CO)[C@@H](O)[C@H](O)[C@H]2O)[C@@H]2[C@@](C)(O)[C@@H](O)C[C@]12O | -11.5
C=C1[C@@H]2[C@H]3OC(=O)C(=C)[C@@H]3CC[C@@](C)(O)[C@@H]2C[C@@H]1O[C@@H]1O[C@H](CO)[C@@H](O)[C@H](O)[C@H]1O | -4.93
CC1(CO)CC[C@]2(C(=O)O[C@@H]3O[C@H](CO)[C@@H](O)[C@H](O)[C@H]3O)CC[C@]3(C)C(=CCC4[C@@]5(C)CC[C@H](O[C@@H]6O[C@H](C(=O)O)[C@@H](O)[C@H](O)[C@H]6O)C(C)(C)C5CC[C@]43C)C2C1 (some centres undefined) | -1.41
C=C1C(O[C@@H]2O[C@H](CO)[C@@H](O)[C@H](O)[C@@H]2O)CC2C(C)(C)C(O)CCC2(C)C1CC/C(C)=C\CO (some centres undefined) | -10.8
C=CC1(C)CC(O)C2(CCC3C(C)(C(=O)O)CCCC3(C)C2=O)C1 (centres undefined) | -1.04
CNC(=O)Nc1ccc(OC)c(NC(=O)NC(=O)c2cc(F)c(F)cc2Cl)c1 | -5.98
COC(=O)C1=CO[C@@H](O[C@@H]2O[C@H](CO)[C@@H](O)[C@H](O)[C@H]2O)[C@@H]2[C@@H](C(=O)OC)[C@@H](O)C(O)[C@H]12 (some centres undefined) | -2.23
COc1cc(/C=C/C(=O)OC2CC(C)=C(C(=O)O)/C2=C/CO[C@@H]2O[C@H](CO)[C@@H](O)[C@H](O)[C@H]2O)ccc1O (some centres undefined) | 4.12
CC(C)(O)c1ccc2c(c1)C(O)CC1C(C)(C(=O)O)CCCC21C (centres undefined) | -4.52
Cc1coc2c1CC1OC1(C)CCC1OC1(C)C2 (centres undefined) | 4.59

* * *

System: NIH3T3
Test: qHTS assay to identify novel small-molecules to repurpose for Merkel cell carcinoma treatment (AID 1296009); also: nearly all actives have a fitted effect of over 60% in size
Conditions: MCC and control cell lines, CellTiter-Glo viability, 72 h; at 44.8 µM (top of the series) unless noted
Source text: MCC is a rare and aggressive neuroendocrine skin cancer with limited treatment options. Approximately 80% of MCCs have the Merkel cell polyomavirus (MCPyV) DNA integrated into the host genome (virus-positive: VP-MCC) and viral oncogenes drive oncogenesis. The remaining MCCs are virus-negative (VN-MCC) and are caused by UV mutagenesis. […] Using cell viability as a readout (CellTiter-Glo assay) we found both overlapping and distinct drugs that can be repurposed for the treatment of VP-MCC and VN-MCC. […]
Results filed as inconclusive are left out. Calls of active or inactive are those of the source. The call rests on the fitted dose curve; in most records, active means well fitted inhibition curve with a large enough effect; inconclusive means small, poorly fitted or top-dose-only effect; inactive means flat fitted curve, though single readings scatter.

compound | outcome
C=C(C(=O)O)[C@@H]1CC=C2CCC[C@H](C)[C@@]2(C)C1 | inactive
COC(=O)C1(Cc2ccc(O)cc2)OC(=O)C(OC)=C1c1ccc(O)cc1 (configuration not stated) | inactive
COc1ccc(C(=O)O[C@H]2CC(C)=CC[C@@]3(C)[C@@H](OC(C)=O)C[C@@](O)(C(C)C)[C@H]23)cc1 | inactive [at 17.4 µM]
C/C(=C\CCC(C(=O)O)C1CCC2(C)C3=C(CCC12C)C1(C)CCC(=O)C(C)(C)C1CC3)C(=O)O (configuration not stated) | inactive [at 17.4 µM]
CC(C)(C)c1cc(CN2CCN(CC(O)c3ccc(Cl)cc3)CC2)cc(C(C)(C)C)c1O (configuration not stated) | inactive
C=C[C@H]1[C@H](O[C@@H]2O[C@H](CO)[C@@H](O)[C@H](O)[C@H]2O)OC=C2C(=O)OCC[C@]21O | inactive
CC(=O)N(O)CCCCCN1C(=O)CCC1=O | inactive
C=C1CCC2C(C)(COC3OC(COC(=O)CC(=O)O)C(O)C(O)C3O)CCCC2(C)C1CCC1=CCOC1=O (configuration not stated) | inactive [at 17.4 µM]
CC1=CC[C@]2(C(=O)O[C@@H]3O[C@H](CO[C@@H]4O[C@H](CO)[C@@H](O[C@@H]5O[C@@H](C)[C@H](O)[C@@H](O)[C@H]5O)[C@H](O)[C@H]4O)[C@@H](O)[C@H](O)[C@H]3O)CC[C@]3(C)C(CCC4[C@@]5(C)C[C@@H](O)[C@H](O)[C@@](C)(CO)C5CC[C@]43C)C2C1C (some centres not stated) | inactive [at 9.27 µM]
Cn1c(=O)cc(N2CCCC(N)C2)n(Cc2ccccc2C#N)c1=O (configuration not stated) | inactive
CC1OC(OC2C(O)C(C(=O)O)OC(OC3CCC4(C)C(CCC5(C)C4C=CC4=C6CC(C)(C)CC(O)C6(C)CCC45C)C3(C)C)C2OC2OCC(O)C(O)C2O)C(O)C(O)C1O (configuration not stated) | inactive [at 9.27 µM]
CC(C)CC1(C(=O)OCc2ccc(O[C@@H]3O[C@H](CO)[C@@H](O)[C@H](O)[C@H]3O)cc2)CC(=O)OC(C(=O)O)CC(=O)OCC2OC(O1)C(OC(=O)/C=C/c1ccc(O)cc1)C(O)C2O (some centres not stated) | inactive [at 9.27 µM]
CC(C)=CC/C=C(/C)[C@H]1CC[C@]2(C)[C@@H]1[C@H](O)CC1[C@@]3(C)CC[C@H](O)C(C)(C)[C@@H]3[C@@H](O[C@@H]3O[C@H](CO)[C@@H](O)[C@H](O)[C@H]3O[C@@H]3O[C@@H](C)[C@H](O)[C@@H](O)[C@H]3O)C[C@]12C (some centres not stated) | inactive [at 17.4 µM]
CC(C)C1=CCC(C)(O)C(OC2OC(CO)C(O)C(O)C2O)C1 (configuration not stated) | inactive
CC(=O)O[C@@]1(C)C[C@@H](O)[C@]2(O)C=CO[C@@H](O[C@@H]3O[C@H](CO)[C@@H](O)[C@H](O)[C@H]3O)[C@@H]21 | inactive [at 17.4 µM]
CC1(O)CCC2C(C(=O)O)=COC(OC3OC(CO)C(O)C(O)C3OC(=O)/C=C/c3ccc(O)cc3)C21 (configuration not stated) | inactive [at 17.4 µM]
CC1[C@@H](O)[C@@H](O)C2[C@]3(C)C(C[C@H]4OC(=O)[C@H](O)[C@]1(O)[C@@]24C)C(C)(O)C[C@H](O)[C@H]3O (some centres not stated) | inactive [at 17.4 µM]
Cc1cn2c(N)c(Cl)cc(C(=O)NCC3CCN(CC(C)C)CC3)c2n1 | inactive
COc1ccc2cc(OCC3(C(=O)O)CN(C(=O)c4ccc(F)cc4)C3)ccc2c1 | inactive
COc1ccc2c(c1)O[C@H](O[C@@H]1O[C@H](CO)[C@@H](O)[C@H](O)[C@H]1O)C(=O)N2 | inactive
COc1cc(CCc2ccccc2)c(C(=O)O)c2c1CC(C(C)(C)O)O2 (configuration not stated) | inactive
C/C1=C\C[C@H](O[C@@H]2O[C@H](CO)[C@@H](O)[C@H](O)[C@H]2O)/C(C)=C/[C@H]2OC(=O)[C@H](C)[C@@H]2CC1 | inactive [at 17.4 µM]
CNC(=O)O[C@H]1COc2ccc(N3CCN(C4COC4)CC3)cc2[C@@H]1NC(=O)c1ccc(F)cc1 | inactive
c1ccc(C(OC2CCN(CCCc3nn[nH]n3)CC2)c2ccccc2)cc1 | inactive
CCC(C)(O)C(O)C(=O)OCc1ccc(O[C@@H]2O[C@H](CO)[C@@H](O)[C@H](O)[C@H]2O)c(OC)c1 (some centres not stated) | inactive [at 17.4 µM]
Cc1[nH]cnc1C1CCN(c2nc3cccc4c3n2CCC4=O)CC1 | inactive
CC(C)=CCCC1(C)Oc2cc3c(c4c2C2C(O4)C(C)(O)CCC21)CN(C(CCC(=O)O)C(=O)O)C3=O (configuration not stated) | inactive [at 17.4 µM]
C=C(C(=O)OC)C1CCC2(C)C(O[C@@H]3O[C@H](CO)[C@@H](O)[C@H](O)[C@H]3O)CC(=O)C(C)C2C1O (some centres not stated) | inactive [at 17.4 µM]
COc1ccc2c(c1O)OC[C@H]1c3ccc(O)cc3O[C@@H]21 | inactive
COc1cc(-c2cccc(O)c2)cc2c1OCO2 | inactive
COC1=CC(=O)C[C@@H](C)[C@]12Oc1cc(OC)cc(OC)c1C2=O | inactive
